OBSERVED PROPERTY: pIC50
# reply with the number alone; pIC50 is -log10 of concentration in mol/L

Quick check: pIC50 on Structural capsid protein (Human immunodeficiency virus 1, UniProt Q76129), item CCN1C(=O)C(c2ccccc2)C(=O)N(c2ccccc2)c2cc(C(F)(F)F)ccc21 (stereo not drawn) ? 6.14

Quick check: pIC50 on Structural capsid protein (Human immunodeficiency virus 1, UniProt Q76129), item `CCN1C(=O)N(c2ccc(C)cc2)C(=O)N(c2ccccc2)c2cc(C(F)(F)F)ccc21` ? 6.72

Quick check: pIC50 on Structural capsid protein (Human immunodeficiency virus 1, UniProt Q76129), item `CCN1C(=O)N(c2ccccc2)C(=O)N(c2ccccc2)c2cc(C(F)(F)F)ccc21` ? 6.20

Quick check: pIC50 on Structural capsid protein (Human immunodeficiency virus 1, UniProt Q76129), item `CCN1C(=O)N(c2cccc(C(=O)NCCN3CCOCC3)c2)C(=O)N(c2ccccc2)c2cc(C(F)(F)F)ccc21` ? 6.66

Quick check: pIC50 on Structural capsid protein (Human immunodeficiency virus 1, UniProt Q76129), item CCN1C(=O)C2(CCc3cc(OC)ccc32)C(=O)N(c2ccccc2)c2cc(C(F)(F)F)ccc21 (stereo not drawn) ? 6.80

Quick check: pIC50 on Structural capsid protein (Human immunodeficiency virus 1, UniProt Q76129), item CCN1C(=O)C2(CCc3ccc(O)cc32)C(=O)N(c2ccccc2)c2cc(C(F)(F)F)ccc21 (stereo not drawn) ? 6.23

Quick check: pIC50 on Structural capsid protein (Human immunodeficiency virus 1, UniProt Q76129), item CCN1C(=O)C2(CC(N)c3cc(O)ccc32)C(=O)N(c2ccccc2)c2cc(C(F)(F)F)ccc21 (stereo not drawn) ? 5.44

Quick check: pIC50 on Structural capsid protein (Human immunodeficiency virus 1, UniProt Q76129), item CCN1C(=O)C2(CC(O)c3cc(O)ccc32)C(=O)N(c2ccccc2)c2cc(C(F)(F)F)ccc21 (stereo not drawn) ? 5.68

Quick check: pIC50 on Structural capsid protein (Human immunodeficiency virus 1, UniProt Q76129), item CN1C(=O)C2(CCc3cc(N)ccc32)C(=O)N(c2ccccc2)c2cc(C(F)(F)F)ccc21 (stereo not drawn) ? 6.80

Quick check: pIC50 on Structural capsid protein (Human immunodeficiency virus 1, UniProt Q76129), item CN1C(=O)C2(CCc3cc(NC(=O)[C@@H]4CCCN4)ccc32)C(=O)N(c2ccccc2)c2cc(C(F)(F)F)ccc21 (stereo partly drawn) ? 6.96

Quick check: pIC50 on Structural capsid protein (Human immunodeficiency virus 1, UniProt Q76129), item CCN1C(=O)C2(CC(C)c3cc(O)ccc32)C(=O)N(c2ccccc2)c2cc(C(F)(F)F)ccc21 (stereo not drawn) ? 6.54

Quick check: pIC50 on Structural capsid protein (Human immunodeficiency virus 1, UniProt Q76129), item `CCN1C(=O)N(c2cccc(C(=O)NC)c2)C(=O)N(c2ccccc2)c2cc(C(F)(F)F)ccc21` ? 6.55

Quick check: pIC50 on Structural capsid protein (Human immunodeficiency virus 1, UniProt Q76129), item CCC1CC2(C(=O)N(CC)c3ccc(C(F)(F)F)cc3N(c3ccccc3)C2=O)c2ccc(O)cc21 (stereo not drawn) ? 6.14

Quick check: pIC50 on Structural capsid protein (Human immunodeficiency virus 1, UniProt Q76129), item `CCN1C(=O)N(c2cc(C)c(O)c(Cl)c2)C(=O)N(c2ccccc2)c2cc(C(F)(F)F)ccc21` ? 7.22

Quick check: pIC50 on Structural capsid protein (Human immunodeficiency virus 1, UniProt Q76129), item CCN1C(=O)C2(CCc3ccccc32)C(=O)N(c2ccccc2)c2cc(C(F)(F)F)ccc21 (stereo not drawn) ? 6.34

Quick check: pIC50 on Structural capsid protein (Human immunodeficiency virus 1, UniProt Q76129), item CCN1C(=O)C2(CC(=O)c3cc(O)ccc32)C(=O)N(c2ccccc2)c2cc(C(F)(F)F)ccc21 (stereo not drawn) ? 5.82

Quick check: pIC50 on Structural capsid protein (Human immunodeficiency virus 1, UniProt Q76129), item `CCN1C(=O)N(c2ccc(C(=O)NC)cc2)C(=O)N(c2ccccc2)c2cc(C(F)(F)F)ccc21` ? 6.89

Quick check: pIC50 on Structural capsid protein (Human immunodeficiency virus 1, UniProt Q76129), item CCN1C(=O)C2(CCc3cc(O)ccc32)C(=O)N(c2ccccc2)c2cc(C(F)(F)F)ccc21 (stereo not drawn) ? 6.68
